Measured Ki, listed per entry.
- subject of test: human EP3 receptor (Homo sapiens)
- Sequence (P43115 whole entry): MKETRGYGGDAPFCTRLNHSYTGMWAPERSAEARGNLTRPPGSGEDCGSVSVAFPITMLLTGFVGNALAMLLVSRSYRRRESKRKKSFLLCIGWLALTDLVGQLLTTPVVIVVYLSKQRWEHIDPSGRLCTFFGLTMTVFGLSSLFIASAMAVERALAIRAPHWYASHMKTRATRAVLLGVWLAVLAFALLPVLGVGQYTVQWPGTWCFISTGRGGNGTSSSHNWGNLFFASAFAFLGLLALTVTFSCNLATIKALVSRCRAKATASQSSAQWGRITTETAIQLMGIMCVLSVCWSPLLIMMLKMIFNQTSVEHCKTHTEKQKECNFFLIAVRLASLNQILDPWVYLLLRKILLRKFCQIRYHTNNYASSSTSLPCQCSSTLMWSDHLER
- experimental details: human EP3 calcium mobilisation assay
- run parameters: heading: functional pKi; human EP3, CHO-K1 cells, PGE2-induced calcium mobilisation; averages of a number of experiments

structure smiles	Ki
CCCNC(=O)Nc1csc(-n2cc(CC(C)C)c3ccc(Cl)cc32)n1	> 3.16 µM
CC(C)Cc1cn(-c2nc(NC(=O)c3cccnc3)cs2)c2cc(Cl)ccc12	> 3.16 µM

Ki for CC(C)Cc1cn(-c2nc(C(=O)Nc3c(F)cccc3F)cs2)c2cc(Cl)ccc12 ?
> 3.16 µM

----------
- subject of test: human EP1 receptor (Homo sapiens, UniProt P34995)
- Construct: expressed in transfected cells; host or cells: CHO-K1
- Sequence (P34995 whole entry): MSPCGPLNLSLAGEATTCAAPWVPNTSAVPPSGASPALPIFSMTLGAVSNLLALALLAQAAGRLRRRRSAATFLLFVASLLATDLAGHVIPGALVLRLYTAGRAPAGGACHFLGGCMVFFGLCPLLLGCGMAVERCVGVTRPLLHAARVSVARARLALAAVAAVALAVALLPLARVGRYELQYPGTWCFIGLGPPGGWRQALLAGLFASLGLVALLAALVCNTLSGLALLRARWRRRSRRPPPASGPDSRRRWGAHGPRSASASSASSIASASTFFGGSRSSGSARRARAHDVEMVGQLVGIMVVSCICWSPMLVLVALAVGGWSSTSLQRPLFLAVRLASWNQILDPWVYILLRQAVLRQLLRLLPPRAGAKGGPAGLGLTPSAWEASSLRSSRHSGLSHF
- experimental details: human EP1 calcium mobilisation assay
- Type: cell-based
- run parameters: human EP1, CHO-K1 cells, PGE2-induced calcium mobilisation; averages of a number of experiments; read-out: functional pKi (converted)
Where a name gives a salt, the structure may show the parent alone.
Ki listing for selected compounds.

Here's what some known entries look like.
compound	Ki
CC(C)Cc1cn(Cc2nc(C(N)=O)cs2)c2cc(Cl)ccc12 [Example 34]	≤ 100 nM
CC(C)Cc1cn(-c2nc(-c3nc(-c4ccccc4)c[nH]3)cs2)c2cc(Cl)ccc12 [Example 52]	≤ 100 nM
CC(C)Cc1cn(-c2nc(C(=O)Nc3c(F)cccc3F)cs2)c2cc(Cl)ccc12 [Example 33]	≤ 100 nM
CC(C)Cc1cn(-c2nc(C(=O)Nc3ccc(F)cc3)cs2)c2cc(Cl)ccc12 [Example 29]	≤ 100 nM
CC(C)Cc1cn(-c2nc(-c3nc4cnccc4[nH]3)cs2)c2cc(Cl)ccc12 [Example 43, hydrochloride]	≤ 100 nM
CC(C)Cc1cn(-c2nc(C(=O)N3CCCC3)cs2)c2cc(Cl)ccc12 [Example 11]	≤ 100 nM

Look up Ki for this compound: CC(C)Cc1cn(-c2nc(C(=O)Nc3ccccn3)cs2)c2cc(Cl)ccc12 [Example 27]
≤ 100 nM

Given CC(C)Cc1cn(-c2nc(NC(=O)c3c(F)cccc3F)cs2)c2cc(Cl)ccc12 [Example 5] , state its recorded Ki.
≤ 100 nM
